- MEASURED ON: DRB01*15:01
- CONDITION DESCRIPTION: chains peptide; modification not given
REPORTED METRIC: IC50 (µM)
Give bare numbers, in µM.

Exercise: Value lookup for IC50; key = GAVILRGHLRIAGHHLGR [SEQ ID NO 312]
Solution: 3.22
